Biological target: T1, human complement C2 (human, UniProt P06681 21-752)
T1 construct: Recombinant full-length human C2 with C-terminal 8x His tag, purified from Expi293F supernatant; also called human C2; huC2
T1 sequence: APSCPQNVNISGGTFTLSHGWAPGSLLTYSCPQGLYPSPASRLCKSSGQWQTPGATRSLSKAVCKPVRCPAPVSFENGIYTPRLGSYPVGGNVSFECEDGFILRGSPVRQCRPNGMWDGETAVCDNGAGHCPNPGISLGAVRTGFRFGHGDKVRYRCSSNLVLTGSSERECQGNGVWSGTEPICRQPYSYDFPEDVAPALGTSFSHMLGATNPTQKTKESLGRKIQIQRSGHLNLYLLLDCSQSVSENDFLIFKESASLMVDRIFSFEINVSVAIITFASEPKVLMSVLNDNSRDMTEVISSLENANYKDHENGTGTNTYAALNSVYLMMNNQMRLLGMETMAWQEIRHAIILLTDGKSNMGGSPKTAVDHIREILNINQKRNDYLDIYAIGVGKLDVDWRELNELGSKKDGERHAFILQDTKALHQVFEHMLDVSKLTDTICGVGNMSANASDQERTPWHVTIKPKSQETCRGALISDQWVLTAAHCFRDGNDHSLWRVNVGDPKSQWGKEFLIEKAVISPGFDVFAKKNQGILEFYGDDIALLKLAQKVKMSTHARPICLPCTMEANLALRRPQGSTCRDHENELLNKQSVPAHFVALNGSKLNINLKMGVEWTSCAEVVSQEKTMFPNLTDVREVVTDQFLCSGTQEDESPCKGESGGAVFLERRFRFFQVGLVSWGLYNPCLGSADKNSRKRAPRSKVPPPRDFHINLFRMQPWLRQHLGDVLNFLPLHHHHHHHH
Assay: SPR, mAb captured, C2 analyte, MHAs buffer, pH 5.8, steady state
In this section, each of the binders is paired with its reported Kd.
Don't forget the unit after the value.

Solved entries:
binder="RF16-214 (antibody, V domains shown) VH: EVQLLESGGGLVQPGGSLRLSCAASGFTFSWYQMMWVRQAPGKGLEWVSRIYPSGGGTAYADSVKGRFTISRDNSKNTLYLQMNSLRAEDTAVYYCARDAGYGDNWGQGTLVTVSS VL: QSALTQPPSVSVSPGQTASITCSGDKLGEKYASWYQQKAGQSPVMVIYQDRKRPSGIPERFSGSNSGNTATLTISGTQAMDEADYYCQAWDTRAVVFGGGTKLTVLG" result="4.67 µM"
binder="RF16-242G (antibody, V domains shown, Germlined version of RF16-242) VH: EVQLVQSGAEVKKPGESLKISCKGSGYSFTSYWIGWVRQMPGKGLEWMGIIYPGDSDTRYSPSFQGQVTISADKSISTAYLQWSSLKASDTAMYYCARRGHYGDYFDYWGQGTLVTVSS VL: SYELTQPPSVSVSPGQTARITCSGDALPKKYAYWYQQKSGQAPVLVIYEDRRRPSGIPERFSGSSSGTMATLTISGAQVEDEADYYCYSRDRAGNQRVFGGGTQLTVLG" result="47 µM"

In the following, a different binder is considered.
Looking up RF16-242 (antibody, V domains shown) VH: EVQLLQSGAEVKKPGESLKISCKGSGYSFTSYWIGWVRQMPGKGLEWMGIIYPGDSDTRYSPSFQGQVTISADKSISTAYLQWSSLKASDTAMYYCARRGHYGDYFDYWGQGTLVTVSS VL: SYELTQPPSVSVSPGQTARITCSGDALPKKYAYWYHQKSGQAPVLVIYEDRRRPSEIPERFSGSSSGTMATLTITGAQVEDEGVYFCYSRDRAGNQRVFGGGTQLTVLG , I found its Kd recorded as 32 µM
